Provide the recorded IC50 for the entries that follow.
Target: Tyrosine decarboxylase (tdc) (Enterococcus faecalis, UniProt P0DTQ4)
Sequence (P0DTQ4 1-620): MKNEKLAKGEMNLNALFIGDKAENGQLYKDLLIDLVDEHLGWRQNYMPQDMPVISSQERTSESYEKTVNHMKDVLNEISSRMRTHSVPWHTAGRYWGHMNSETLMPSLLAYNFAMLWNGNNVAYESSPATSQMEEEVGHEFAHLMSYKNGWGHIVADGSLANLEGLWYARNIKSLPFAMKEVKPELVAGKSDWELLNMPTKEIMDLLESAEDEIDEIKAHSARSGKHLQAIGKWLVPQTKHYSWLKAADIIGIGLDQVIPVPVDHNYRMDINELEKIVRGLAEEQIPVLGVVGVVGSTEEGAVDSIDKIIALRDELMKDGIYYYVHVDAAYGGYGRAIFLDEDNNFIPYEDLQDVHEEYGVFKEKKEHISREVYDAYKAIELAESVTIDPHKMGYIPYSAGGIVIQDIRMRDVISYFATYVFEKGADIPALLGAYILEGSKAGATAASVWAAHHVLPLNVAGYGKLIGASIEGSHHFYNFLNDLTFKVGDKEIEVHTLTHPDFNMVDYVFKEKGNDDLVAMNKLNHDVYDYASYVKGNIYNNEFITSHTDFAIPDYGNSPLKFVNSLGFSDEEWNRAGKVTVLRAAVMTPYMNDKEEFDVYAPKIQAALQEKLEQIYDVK
Provide the reading as a plain figure in µM.

Data request: Enter IC50 (test system Tyrosine decarboxylase (tdc) (Enterococcus faecalis, UniProt P0DTQ4)) for N[C@](CF)(Cc1ccc(O)cc1)C(=O)O [T]
Data returned: 82.3

Data request: Enter IC50 (test system Tyrosine decarboxylase (tdc) (Enterococcus faecalis, UniProt P0DTQ4)) for N[C@@](CF)(Cc1ccc(O)cc1)C(=O)O [S]
Data returned: 4
